IC50 reference
tested on: 885724-159-R-J1-PDC complex spheroid viability; test: Anticancer human tumor 885724-159-R-J1-PDC patient-derived pancreatic adenocarcinoma cell line growth inhibition [GQUAD]; conditions: curve of first compound; second compound 3.16 µM

Answered cases to consult:
[[record]]
molecule = "CC1COCCN1c1cc(C2(O)CC3CCC(C2)O3)c2cnn(-c3ccn[nH]3)c2n1 (configuration not stated) + Cc1[nH]c2ccc(F)cc2c1-c1nc2c3cccnc3c3ncccc3c2[nH]1"
target_system = "885724-159-R-J1-PDC complex spheroid viability"
assay_result = "< 31.6 nM"

[[record]]
molecule = "COc1cc(C2c3cc4c(cc3C(OC3OC5COC(C)OC5C(O)C3O)C3COC(=O)C23)OCO4)cc(OC)c1O (configuration not stated) + Cc1cnc(CNC(=O)c2c(=O)c3ccc(N4CCCN(C)CC4)nc3n3c2sc2ccccc23)cn1"
target_system = "885724-159-R-J1-PDC complex spheroid viability"
assay_result = "> 10000 nM"

[[record]]
molecule = "CC[C@@]1(O)C(=O)OCc2c1cc1n(c2=O)Cc2cc3c(CN(C)C)c(O)ccc3nc2-1 + Cc1cnc(CNC(=O)c2c(=O)c3ccc(N4CCCN(C)CC4)nc3n3c2sc2ccccc23)cn1"
target_system = "885724-159-R-J1-PDC complex spheroid viability"
assay_result = "> 316 nM"

[[record]]
molecule = "CC(=O)O[C@H]1C(=O)[C@@]2(C)[C@H]([C@H](OC(=O)c3ccccc3)[C@]3(O)C[C@H](OC(=O)[C@H](O)[C@@H](NC(=O)c4ccccc4)c4ccccc4)C(C)=C1C3(C)C)[C@]1(OC(C)=O)CO[C@@H]1C[C@@H]2O + Cc1[nH]c2ccc(F)cc2c1-c1nc2c3cccnc3c3ncccc3c2[nH]1"
target_system = "885724-159-R-J1-PDC complex spheroid viability"
assay_result = "< 31.6 nM"

[[record]]
molecule = "Cc1cccc(N(C)C(=O)C2C(O)CCN2c2nc(C)cc(C(F)(F)F)c2C#N)c1 (configuration not stated) + Cc1[nH]c2ccc(F)cc2c1-c1nc2c3cccnc3c3ncccc3c2[nH]1"
target_system = "885724-159-R-J1-PDC complex spheroid viability"
assay_result = "< 31.6 nM"


May I ask what IC50 has been recorded for O=c1[nH]cc(F)c(=O)[nH]1 + Cc1[nH]c2ccc(F)cc2c1-c1nc2c3cccnc3c3ncccc3c2[nH]1 ?
< 31.6 nM

====

tested on: 885724-159-R-J1-PDC complex spheroid viability; experiment: Anticancer human tumor 885724-159-R-J1-PDC cell line growth inhibition [GQUAD]; conditions: curve of first compound; second compound 1 µM;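 also: spheroids exposed to agents for seven days before readout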
pIC50: −log10 of the molar value.
RECORDED_METRIC: pIC50

Answered cases to consult:
[[record]]
compound = "COc1cc(C2c3cc4c(cc3C(OC3OC5COC(C)OC5C(O)C3O)C3COC(=O)C23)OCO4)cc(OC)c1O (stereo not drawn) + CN(C)c1ccc(Nc2c3ccc(NC(=O)CCN4CCCC4)cc3nc3cc(NC(=O)CCN4CCCC4)ccc23)cc1"
target_system = "885724-159-R-J1-PDC complex spheroid viability"
assay_result = "< 5.00"

[[record]]
compound = "CC[C@@]1(O)C(=O)OCc2c1cc1n(c2=O)Cc2cc3c(CN(C)C)c(O)ccc3nc2-1 + Cc1cnc(CNC(=O)c2c(=O)c3ccc(N4CCCN(C)CC4)nc3n3c2sc2ccccc23)cn1"
target_system = "885724-159-R-J1-PDC complex spheroid viability"
assay_result = "< 6.50"


For the next question, use this compound.
Give recorded pIC50 with 885724-159-R-J1-PDC complex spheroid viability for the following compound: CC1COCCN1c1cc(C2(S(C)(=N)=O)CC2)nc(-c2ccnc3[nH]ccc23)n1 (stereo not drawn) + Cc1[nH]c2ccc(F)cc2c1-c1nc2c3cccnc3c3ncccc3c2[nH]1
< 5.00
